- target.system: human CA9 (carbonic anhydrase IX) (human, UniProt Q16790 38-414)
- assay.remarks: BIAcore T100, mAb captured on anti-human IgG, antigen as analyte, 1:1 model; mAb purified by protein A (ProA)

binder: zu155D5-3 (antibody, human IgG1, kappa, V domains shown, Humanized 155D5, human IgG1 kappa; Tested both protein A purified and decapped; also called zu155D5-CXXA) VH: QVQLVESGGGLVQPGGSLRLSCSASGFSLNSYAMIWVRQAPGKGLEYIGFITTGGTTYYADSVKGRFTISRDNSKNTLYLQMNSLRAEDTAVYYCARDRVKSYDDYGDLDAFEPWGQGTLVTVSS VL: DIQMTQSPSTLSASVGDRVTITCQASQSISSYLAWYQQKPGKAPKLLIYYASTLASGVPSRFSGSGSGTEFTLTISSLQCDDAATYYCLGVYGYSFDDGIAFGGGTKVEIKR
readout.unit: s⁻¹
koff: 0.000401

binder: xi155D5 (rabbit/human chimerized 155D5 mAb) (antibody, human IgG1, kappa, V domains shown, Human IgG1 kappa constant regions; Unpaired Cys80 of the light chain is capped by a free cysteine after plain protein A purification; also called xi155D5 mAb) VH: QSVKESGGRLVTPGTPLTLTCTVSGFSLNSYAMIWVRQAPGEGLEYIGFITTGGTTYYASWAKGRFTISRTSTTVDLKLTRPTTEDTATYFCARDRVKSYDDYGDLDAFEPWGPGTLVTISS VL: ELVMTQTPSSVSAAVGGTVTINCQASQSISSYLAWYQQKPGQPPKLLIYYASTLASGVPSRFKGSGSGTEFTLTITGVQCDDAATYYCLGVYGYSFDDGIAFGGGTELEIKR
readout.unit: s⁻¹
koff: 0.000149

binder: zu155D5-5 (antibody, human IgG1, kappa, V domains shown, Humanized 155D5, human IgG1 kappa; Tested both protein A purified and decapped) VH: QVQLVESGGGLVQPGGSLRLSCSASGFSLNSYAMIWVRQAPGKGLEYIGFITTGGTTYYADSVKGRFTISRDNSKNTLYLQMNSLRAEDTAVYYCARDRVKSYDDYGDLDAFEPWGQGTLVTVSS VL: DIQMTQSPSTLSASVGDRVTITCQASQSISSYLAWYQQKPGKAPKLLIYYASTLASGVPSRFKGSGSGTEFTLTITGVQCDDAATYYCLGVYGYSFDDGIAFGGGTKVEIKR
readout.unit: s⁻¹
koff: 0.000373
